// provenance: ChEMBL document CHEMBL1146447

Each entry below lists one item and its recorded inhibition at 100 ppm value.
System: Drechslera
Experiment: Antifungal activity against Drechslera oryzae at 100 ppm after 168 hrs at 24 hrs intervals
Assay type: functional
Please make sure the unit comes right after the number.

> print(dat)
                                 cpd.smiles  result
1  CC(C)=CCc1c(O)cc2oc3cc(O)c(O)c(CC=C(C)C)c3c(=O)c2c1O     81%
2  CCCOc1cc2oc3cc(OCCC)c(OC)c(CC=C(C)C)c3c(=O)c2c(O)c1CC=C(C)C    -36%
3  COc1c(O)cc2oc3cc4c(c(O)c3c(=O)c2c1CC=C(C)C)CCC(C)(C)O4     58%
4  CCCCOc1cc2oc3cc(OCCCC)c(OC)c(CC=C(C)C)c3c(=O)c2c(O)c1CC=C(C)C    -66%
5                    S=c1c2ccccc2oc2ccccc12    -11%

(Q) Item COc1c(OC(C)=O)cc2oc3cc(OC(C)=O)c(CC=C(C)C)c(O)c3c(=O)c2c1CC=C(C)C with Drechslera - inhibition at 100 ppm?
(A) 11%

(Q) Notebook entry, Drechslera assay: inhibition at 100 ppm of CC(C)=CCc1c(O)c(CC=C(C)C)c2oc3c(O)ccc(O)c3c(=O)c2c1O = ?
(A) 75%

(Q) Notebook entry, Drechslera assay: inhibition at 100 ppm of COc1c(OC(C)C)cc2oc3cc(OC(C)C)c(CC=C(C)C)c(O)c3c(=O)c2c1CC=C(C)C = ?
(A) 1%

(Q) Record COc1cc2oc3cc(OC)c(OC)c(CC=C(C)C)c3c(=O)c2c(O)c1CC=C(C)C : what is its inhibition at 100 ppm with Drechslera?
(A) 27%
